Hey, just so you know, these numbers are from patent US20080300288A1.

- experimentalProtocol: In vitro hydrolytic stability study in rat plasma
- Type: in vitro ADME
- assayConditions: rat plasma in vitro, half-life
Rat Plasma tp1/2 (min ± SD) reference
measurementLabel: Rat Plasma tp1/2 (min ± SD) (min)

>>> observedresult("COC(=O)CCC/C=C(\\c1cccc(C#N)c1)c1cc(Cl)c(OC)c(C(=O)OC)c1")
0.44
>>> observedresult("COC(=O)c1cc(/C(=C/CCN2CCOC2=O)c2ccc(OC)c(OC)c2)cc(C)c1OC")
0.79
>>> observedresult("COC(=O)CCC/C=C(/c1cc(C)c2on(C)c(=O)c2c1)c1cc(Cl)ccc1OC")
0.48
>>> observedresult("COC(=O)CCC/C=C(\\c1cc(C)c(OC)c(C(=O)OC)c1)c1cc(C)c2oc(=O)n(C)c2c1")
1.30
>>> observedresult("COC(=O)CCC/C=C(/c1cc(C)c2on(C)c(=O)c2c1)c1cc(C)c2oc(=O)n(C)c2c1")
0.46
>>> observedresult("COC(=O)CCC/C=C(/c1cc(C)c(OC)c(C(=O)OC)c1)c1cc(C)c2oc(=O)n(C)c2c1")
1.74
>>> observedresult("COC(=O)CCC/C=C(/c1cc(C)c(OC)c(C(=O)OC)c1)c1cc(Cl)ccc1OC")
0.98
>>> observedresult("COC(=O)CCC/C=C(/c1cc(F)cc(C(F)(F)F)c1)c1cc(C)c(OC)c(C(=O)OC)c1")
4.35
